Target: human bradykinin 1 receptor (B1R) (Homo sapiens, UniProt P46663)
Construct: expressed in transfected cells; host or cells: CHO K1 cells
Sequence (P46663 whole entry): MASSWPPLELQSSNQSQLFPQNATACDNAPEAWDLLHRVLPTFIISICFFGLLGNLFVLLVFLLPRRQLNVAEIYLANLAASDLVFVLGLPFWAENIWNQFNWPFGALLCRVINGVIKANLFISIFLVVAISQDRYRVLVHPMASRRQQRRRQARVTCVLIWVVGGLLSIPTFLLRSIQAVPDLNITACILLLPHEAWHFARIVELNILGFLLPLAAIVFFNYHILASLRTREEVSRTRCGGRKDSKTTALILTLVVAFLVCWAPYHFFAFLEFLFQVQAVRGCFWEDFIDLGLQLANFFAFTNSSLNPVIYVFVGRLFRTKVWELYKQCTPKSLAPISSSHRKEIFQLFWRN
Assay: Functional investigation on the human bradykinin 1 receptor (B1R), Ca2+ FLIPR assay in CHO K1 hB1R cells
Assay type: cell-based
Settings: B1R antagonism human; test substance 10 μM; Ca2+ FLIPR, CHO K1 hB1R cells
// map B1R Ant. h [10 μM] % Inhibition onto a label; ranges Low (below 10%), Mid (10% to below 40%), High (40% or more)

INSERT INTO measurements (molecule, discrete_label) VALUES
  ('CN(C)C(CCc1ccccc1)C1CCC(CNC(=O)COCCN(C)S(=O)(=O)c2c(Cl)cc(Cl)cc2Cl)CC1 (centres unmarked)', 'High'),
  ('COc1cc(C)c(S(=O)(=O)N(C)CCOCC(=O)NCC2CCC(C(CCc3ccccc3)N(C)C)CC2)c(C)c1C (centres unmarked)', 'High'),
  ('Cc1ccc(S(=O)(=O)N(C)CCOCC(=O)NCCC2CCC(C(c3ccc(F)cc3)N(C)C)CC2)cc1 (centres unmarked)', 'Mid'),
  ('CN(C)C(c1ccc(Cl)cc1)C1CCC(CNC(=O)COC2CCN(S(=O)(=O)c3ccc(F)cc3)C2)CC1 (centres unmarked)', 'Low'),
  ('COc1cc(C)c(S(=O)(=O)N2CCCC(OCC(=O)NC3CCC(C(c4cccc(F)c4)N(C)C)CC3)C2)c(C)c1C (centres unmarked)', 'Mid'),
  ('CN(C)C(c1ccc(F)cc1)C1CCC(NC(=O)COC2CCCCC2N(C)S(=O)(=O)c2ccc(Cl)c(Cl)c2)CC1 (centres unmarked)', 'High'),
  ('CN(C)C(c1cccs1)C1CCC(CCNC(=O)COCCN(C)S(=O)(=O)c2c(F)c(F)c(F)c(F)c2F)CC1 (centres unmarked)', 'Low'),
  ('COc1ccc(S(=O)(=O)N2CCCCC2COCC(=O)NC2CCC(C(c3cccc(F)c3)N(C)C)CC2)cc1OC (centres unmarked)', 'Low'),
  ('COc1cc(C)c(S(=O)(=O)N2CCC(OCC(=O)NC3CCC(C(c4ccc(F)cc4)N(C)C)CC3)CC2)c(C)c1C (centres unmarked)', 'High'),
  ('Cc1cc(C)c(S(=O)(=O)N(C)CCOCC(=O)NC2CCC(C(c3cccs3)N(C)C)CC2)c(C)c1 (centres unmarked)', 'Mid'),
  ('COc1cc(C)c(S(=O)(=O)N2CCC(CCOCC(=O)NCCC3CCC(C(c4ccc(F)cc4)N(C)C)CC3)CC2)c(C)c1C (centres unmarked)', 'Mid'),
  ('CCN(CCOCC(=O)NCC1CCC(C(c2ccc(F)cc2)N(C)C)CC1)S(=O)(=O)c1c(C)cc(OC)c(C)c1C (centres unmarked)', 'High'),
  ('COc1ccc(S(=O)(=O)N(C)CCOCC(=O)NCC2CCC(C(c3ccc(F)cc3)N(C)C)CC2)cc1OC (centres unmarked)', 'Low'),
  ('CN(C)C(c1ccc(Cl)cc1)C1CCC(CCNC(=O)COCCN(C)S(=O)(=O)c2ccc(F)cc2)CC1 (centres unmarked)', 'Mid');

---

Target: bradykinin 1 receptor (B1R) of the rat (Rattus norvegicus, UniProt P97583)
Construct: expressed in transfected cells; host or cells: CHO K1 cells
Sequence (P97583 1-337): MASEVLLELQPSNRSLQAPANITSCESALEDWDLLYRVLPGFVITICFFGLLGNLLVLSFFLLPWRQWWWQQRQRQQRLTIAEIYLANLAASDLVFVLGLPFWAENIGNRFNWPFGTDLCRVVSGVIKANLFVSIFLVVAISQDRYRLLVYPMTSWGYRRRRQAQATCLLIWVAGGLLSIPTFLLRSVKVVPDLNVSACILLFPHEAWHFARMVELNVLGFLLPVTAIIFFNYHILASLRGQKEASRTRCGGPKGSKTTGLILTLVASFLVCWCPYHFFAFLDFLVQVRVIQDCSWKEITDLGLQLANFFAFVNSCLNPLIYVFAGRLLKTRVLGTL
Assay: Functional investigation on the rat bradykinin 1 receptor (B1R), Ca2+ FLIPR assay in CHO K1 rB1R cells
Format: cell-based
Details: B1R antagonism rat; test substance 10 μM; Ca2+ FLIPR, CHO K1 rB1R cells
Reported B1R Ant. r [10 μM] % Inhibition values for the following molecules.
metric name: B1R Ant. r [10 μM] % Inhibition

INSERT INTO measurements (molecule, result) VALUES
  ('CN(C)C(CCc1ccccc1)C1CCC(CNC(=O)COCCN(C)S(=O)(=O)c2ccc(Cl)cc2)CC1 (stereo not shown) [Example 445]', '46%'),
  ('COc1cc(C)c(S(=O)(=O)N2CCCC(OCC(=O)NCCC3CCC(C(c4ccc(F)cc4)N(C)C)CC3)C2)c(C)c1C (stereo not shown) [Example 468]', '33%'),
  ('COc1ccc(S(=O)(=O)N2Cc3ccccc3CC2COCC(=O)NCCC2CCC(C(c3ccc(Cl)cc3)N(C)C)CC2)cc1 (stereo not shown) [Example 374]', '11%'),
  ('CN(C)C(c1cccc(F)c1)C1CCC(CCNC(=O)COC2CCN(S(=O)(=O)c3ccc(Cl)cc3Cl)C2)CC1 (stereo not shown) [Example 259]', '25%'),
  ('CN(C)C(c1ccc(F)cc1)C1CCC(CNC(=O)COCC2CCCN(S(=O)(=O)c3ccccc3)C2)CC1 (stereo not shown) [Example 424]', '20%'),
  ('COc1cc(C)c(S(=O)(=O)N2CCC(OCC(=O)NC3CCC(C(c4ccc(F)cc4)N(C)C)CC3)CC2)c(C)c1C (stereo not shown) [Example 454]', '10%'),
  ('CN(C)C(c1ccc(F)cc1)C1CCC(CNC(=O)COCCN(C)S(=O)(=O)c2c(Cl)cc(Cl)cc2Cl)CC1 (stereo not shown) [Example 404]', '33%');

---

Target: serotonin (5-HT) reuptake (Rattus norvegicus, UniProt P31652)
Construct: synaptosomes are freshly isolated from areas of the rat brain; from tissue; host or cells: rat brain synaptosomes (P2 fraction)
Sequence (P31652 whole entry): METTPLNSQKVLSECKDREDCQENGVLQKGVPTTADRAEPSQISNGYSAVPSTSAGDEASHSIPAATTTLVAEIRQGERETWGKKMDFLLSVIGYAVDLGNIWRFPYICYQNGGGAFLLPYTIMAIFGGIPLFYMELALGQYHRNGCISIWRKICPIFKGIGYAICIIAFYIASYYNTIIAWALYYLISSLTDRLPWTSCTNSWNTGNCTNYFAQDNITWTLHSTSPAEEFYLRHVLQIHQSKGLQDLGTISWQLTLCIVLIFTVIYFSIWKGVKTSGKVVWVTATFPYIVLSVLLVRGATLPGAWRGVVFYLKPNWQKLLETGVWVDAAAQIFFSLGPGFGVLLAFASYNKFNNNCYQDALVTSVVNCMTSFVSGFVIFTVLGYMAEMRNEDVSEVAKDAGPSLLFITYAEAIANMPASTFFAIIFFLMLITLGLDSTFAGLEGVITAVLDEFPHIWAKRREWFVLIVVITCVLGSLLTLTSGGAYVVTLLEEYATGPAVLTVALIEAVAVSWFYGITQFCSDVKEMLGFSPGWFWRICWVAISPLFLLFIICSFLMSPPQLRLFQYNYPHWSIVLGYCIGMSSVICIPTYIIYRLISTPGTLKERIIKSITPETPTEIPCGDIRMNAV
Experiment: Inhibition of serotonin (5HT) reuptake in synaptosomes from rat brain
Assay type: biochemical
Settings: test concentration of 10 μM; read-out: 5-HT (inhibition of reuptake of serotonin, % inhibition)
metric name: inhibition at 10 µM

INSERT INTO measurements (compound, metric_name, result) VALUES
  ('Cc1cc(C)c(S(=O)(=O)N2CCC(OCC(=O)NC3CCC(C(c4cccs4)N(C)C)CC3)C2)c(C)c1 (stereo not shown) [Example 12]', 'inhibition at 10 µM', '79%'),
  ('COc1cc(C)c(S(=O)(=O)N(C)CCOCC(=O)NCC2CCC(C(c3cccc(F)c3)N(C)C)CC2)c(C)c1C (stereo not shown) [Example 160]', 'inhibition at 10 µM', '80%'),
  ('COc1ccc(S(=O)(=O)N2CCCCC2COCC(=O)NCC2CCC(C(c3cccs3)N(C)C)CC2)cc1 (stereo not shown) [Example 45]', 'inhibition at 10 µM', '91%'),
  ('CN(C)C(c1cccs1)C1CCC(NC(=O)COC2CCN(S(=O)(=O)c3ccccc3)C2)CC1 (stereo not shown) [Example 194]', 'inhibition at 10 µM', '86%');

---

Molecular target: human μ opiate receptor (Homo sapiens, UniProt P35372)
Construct: purchased PerkinElmer Life Sciences, Zaventem, Belgium RB-HOM; host or cells: CHO-K1 cells (membrane preparation)
Sequence (P35372 whole entry): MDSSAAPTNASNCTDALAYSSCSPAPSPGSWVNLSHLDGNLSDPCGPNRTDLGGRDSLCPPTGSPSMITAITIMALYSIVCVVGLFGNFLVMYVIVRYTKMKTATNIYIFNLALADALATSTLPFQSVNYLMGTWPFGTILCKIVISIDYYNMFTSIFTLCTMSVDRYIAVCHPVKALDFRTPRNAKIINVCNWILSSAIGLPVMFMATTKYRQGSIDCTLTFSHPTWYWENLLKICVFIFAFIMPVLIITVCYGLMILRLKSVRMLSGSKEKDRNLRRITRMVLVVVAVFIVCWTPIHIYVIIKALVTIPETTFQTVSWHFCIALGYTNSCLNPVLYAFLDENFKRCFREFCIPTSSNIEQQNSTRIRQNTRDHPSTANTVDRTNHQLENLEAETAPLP
Experiment: Affinity for the human μ opiate receptor ([3H]-naloxone displacement, CHO-K1 receptor membrane preparation, SPA)
Format: binding
Settings: test concentration of 1 μM
Reported μ (binding on the μ opioid receptor, % inhibition) values for the following compounds.
metric name: μ (binding on the μ opioid receptor, % inhibition)

INSERT INTO assay_data (compound, result) VALUES
  ('CN(C)C(c1cccc(F)c1)C1CCC(CCNC(=O)COCCN(C)S(=O)(=O)c2ccc(F)cc2)CC1 (centres unmarked)', '82%'),
  ('COc1ccc(S(=O)(=O)N2CCCCC2COCC(=O)NCC2CCC(C(c3cccc(F)c3)N(C)C)CC2)cc1OC (centres unmarked)', '66%'),
  ('CN(C)C(c1ccc(F)cc1)C1CCC(NC(=O)COCC2CCCN(S(=O)(=O)c3ccccc3)C2)CC1 (centres unmarked)', '40%'),
  ('CN(C)C(CCc1ccccc1)C1CCC(CNC(=O)COCC2CCCN(S(=O)(=O)c3ccccc3)C2)CC1 (centres unmarked)', '24%'),
  ('COc1ccc(S(=O)(=O)N2CCCCC2COCC(=O)NCC2CCC(C(CCc3ccccc3)N(C)C)CC2)cc1 (centres unmarked)', '50%'),
  ('COc1ccc(S(=O)(=O)N(C)CCOCC(=O)NCC2CCC(C(CCc3ccccc3)N(C)C)CC2)cc1 (centres unmarked)', '20%'),
  ('COc1ccc(S(=O)(=O)N(C)CCOCC(=O)NC2CCC(C(c3cccc(F)c3)N(C)C)CC2)cc1OC (centres unmarked)', '49%'),
  ('CN(C)C(c1ccc(F)cc1)C1CCC(NC(=O)COC2CCN(S(=O)(=O)c3ccc(Cl)cc3)C2)CC1 (centres unmarked)', '59%'),
  ('COc1ccc(S(=O)(=O)N2Cc3ccccc3CC2COCC(=O)NC2CCC(C(c3ccc(F)cc3)N(C)C)CC2)cc1 (centres unmarked)', '76%'),
  ('CN(C)C(c1ccc(F)cc1)C1CCC(NC(=O)COCC2CCCN2S(=O)(=O)c2ccc(Cl)c(Cl)c2)CC1 (centres unmarked)', '64%'),
  ('COc1cc(C)c(S(=O)(=O)N(CCOCC(=O)NC2CCC(C(c3ccc(F)cc3)N(C)C)CC2)Cc2ccccc2)c(C)c1 (centres unmarked)', '43%'),
  ('COc1ccc(S(=O)(=O)N(C)CCOCC(=O)NCC2CCC(C(CCc3ccccc3)N(C)C)CC2)cc1OC (centres unmarked)', '14%'),
  ('CN(C)C(c1ccc(F)cc1)C1CCC(CCNC(=O)COCCN2CCN(S(=O)(=O)c3ccccc3)CC2)CC1 (centres unmarked)', '34%'),
  ('COc1cc(C)c(S(=O)(=O)N(C)CCOCC(=O)NCCC2CCC(C(c3ccc(F)cc3)N(C)C)CC2)c(C)c1 (centres unmarked)', '57%');
